- PROTOCOL DETAILS: Cytotoxicity against human MCF7 cells assessed as reduction in cell viability after 48 hrs by CCK8 assay
- Type: functional, cell-based
- MEASUREMENT CONTEXT: MCF7, 48 h
VALUE KIND: IC50 (µM)
Give just the number in µM; leave the unit off.

Below: 2 compounds and their reported IC50.
CC(=O)c1c(C)c2cnc(Nc3ccc(N4CCN(C(=O)CNCCN)CC4)cn3)nc2n(C2CCCC2)c1=O : 0.223
COCCCNCC(=O)N1CCN(c2ccc(Nc3ncc4c(C)c(C(C)=O)c(=O)n(C5CCCC5)c4n3)nc2)CC1 : 0.105

Exercise: Could you tell me which IC50 is on file for `COCCN1CCN(c2ccc(Nc3ncc4c(C)c(C(C)=O)c(=O)n(C5CCCC5)c4n3)nc2)CC1` ?
Solution: 0.893

Exercise: Could you tell me which IC50 is on file for `CC(=O)c1c(C)c2cnc(Nc3ccc(N4CCNCC4)cn3)nc2n(C2CCCC2)c1=O` ?
Solution: 0.24
